Biological target: marmoset 17β-HSD 1 (Callithrix jacchus)
Sequence (Q9GME2 1-314): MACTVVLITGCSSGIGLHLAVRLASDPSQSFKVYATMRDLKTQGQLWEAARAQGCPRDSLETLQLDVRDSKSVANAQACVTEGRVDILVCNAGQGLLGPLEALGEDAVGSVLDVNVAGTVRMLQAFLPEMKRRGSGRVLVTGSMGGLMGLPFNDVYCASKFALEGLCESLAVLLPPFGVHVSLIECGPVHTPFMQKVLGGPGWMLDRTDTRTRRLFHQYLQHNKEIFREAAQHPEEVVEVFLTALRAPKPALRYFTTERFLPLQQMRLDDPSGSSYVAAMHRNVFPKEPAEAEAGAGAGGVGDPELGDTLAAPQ
Assay: In vitro enzymatic activity, recombinant marmoset 17β-HSD 1
Format: biochemical
Settings: marmoset 17β-HSD 1; 2 µM compound; 15 nM 3H-estrone; read-out: Observed % inhibition
Description: Full length cDNAs of several 17β-HSDs type 1 originating from different species were cloned either into the pQE30 vector (human 17β-HSD 1, coding for acc. no. NP_000404) for expression as His-Tag protein or into a modified pGex-2T vector [63] (mouse 17β-HSD 1, acc. no. NP_034605; rat 17β-HSD 1, acc. no. NP_036983; marmoset 17β-HSD 1, acc. no. AAG01115; porcine 17β-HSD 1, acc. no. NP_001121944) for expression as GST-fusion proteins. […]
Recorded measurements of inhibition at 2 µM, one per entry

Below, 5 compounds whose answers are already recorded.
{"columns": ["compound", "inhibition at 2 µM"],
 "data": [
  ["C[C@]12CC[C@@H]3c4ccc(O)cc4CC[C@H]3[C@@H]1[C@@H](CNC(=O)c1ccc(F)cc1)CC2=O", "30.6%"],
  ["C[C@]12CC[C@@H]3c4ccc(O)cc4CC[C@H]3[C@@H]1CCC2=O [Compound 6, estrone, reference compound]", "110%"],
  ["C[C@]12CC[C@@H]3c4ccc(O)cc4CC[C@H]3[C@@H]1C[C@H](CC(=O)NCc1cccnc1)C2=O [Compound 5, reference compound]", "45.6%"],
  ["COc1ccc(-c2cn(CCC[C@H]3CC(=O)[C@@]4(C)CC[C@@H]5c6ccc(O)cc6CC[C@H]5[C@H]34)nn2)cc1", "85.2%"],
  ["Cc1cnc(NC(=O)CC[C@@H]2CC(=O)[C@@]3(C)CC[C@@H]4c5ccc(O)cc5CC[C@H]4[C@H]23)s1", "98.5%"]
]}

Next compound, please.
Name the value of inhibition at 2 µM reported for C[C@]12CC[C@@H]3c4ccc(O)cc4CC[C@H]3[C@@H]1[C@@H](CCCC(=O)N1CCOCC1)CC2=O when tested on marmoset 17β-HSD 1 (Callithrix jacchus).
60.3%

====

Recorded inhibition at 2 µM values for a group of compounds are listed next.
Biological target: human 17β-HSD 2 (Homo sapiens, UniProt P37059)
Construct: made in house; host or cells: E.coli BL21 DE3 Codon Plus RP
Sequence (P37059 whole entry): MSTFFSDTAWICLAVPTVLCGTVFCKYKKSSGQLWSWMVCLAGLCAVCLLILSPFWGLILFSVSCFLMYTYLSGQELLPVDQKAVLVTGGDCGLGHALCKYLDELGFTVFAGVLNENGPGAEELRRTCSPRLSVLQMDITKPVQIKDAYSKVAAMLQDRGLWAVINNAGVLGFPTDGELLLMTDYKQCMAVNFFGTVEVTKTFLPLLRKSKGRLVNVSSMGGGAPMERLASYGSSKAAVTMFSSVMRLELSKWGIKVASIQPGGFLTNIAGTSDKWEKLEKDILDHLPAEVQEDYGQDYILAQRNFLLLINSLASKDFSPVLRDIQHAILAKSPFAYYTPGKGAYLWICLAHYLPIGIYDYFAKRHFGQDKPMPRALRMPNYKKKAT
Assay: In vitro enzymatic activity, recombinant human 17β-HSD 2 (estradiol oxidation)
Format: biochemical
Details: 2 µM compound, 21 nM 3H-estradiol, NAD+, pH 7.7, read-out: Observed % inhibition
Source text: Full length cDNAs of several 17β-HSDs type 1 originating from different species were cloned either into the pQE30 vector (human 17β-HSD 1, coding for acc. no. NP_000404) for expression as His-Tag protein or into a modified pGex-2T vector [63] (mouse 17β-HSD 1, acc. no. NP_034605; rat 17β-HSD 1, acc. no. NP_036983; marmoset 17β-HSD 1, acc. no. AAG01115; porcine 17β-HSD 1, acc. no. NP_001121944) for expression as GST-fusion proteins. […]
Quick reminder: number only, in %, skip the unit.

Previously resolved entries follow.
{"columns": ["compound", "targetOfAssay", "valueKind", "quantitativeResult"],
 "data": [
  ["C[C@]12CC[C@@H]3c4ccc(O)cc4CC[C@H]3[C@@H]1C[C@H](CC(=O)NCc1cccnc1)C2=O [Compound 5, reference compound]", "human 17β-HSD 2 (Homo sapiens, UniProt P37059)", "inhibition at 2 µM", -3.2],
  ["C[C@]12CC[C@@H]3c4ccc(O)cc4CC[C@H]3[C@@H]1[C@@H](CNC(=O)c1ccc(F)cc1)CC2=O", "human 17β-HSD 2 (Homo sapiens, UniProt P37059)", "inhibition at 2 µM", -4.3],
  ["C[C@]12CC[C@@H]3c4ccc(O)cc4CC[C@H]3[C@@H]1[C@@H](CCCC(=O)N1CCOCC1)CC2=O", "human 17β-HSD 2 (Homo sapiens, UniProt P37059)", "inhibition at 2 µM", 16.7],
  ["Cc1cnc(NC(=O)CC[C@@H]2CC(=O)[C@@]3(C)CC[C@@H]4c5ccc(O)cc5CC[C@H]4[C@H]23)s1", "human 17β-HSD 2 (Homo sapiens, UniProt P37059)", "inhibition at 2 µM", 18.6]
]}

Kindly consider the entry below.
Give inhibition at 2 µM for COc1ccc(-c2cn(CCC[C@H]3CC(=O)[C@@]4(C)CC[C@@H]5c6ccc(O)cc6CC[C@H]5[C@H]34)nn2)cc1
-0.3

====

Molecular target: marmoset 17β-HSD 1 (Callithrix jacchus)
Experiment: In vitro enzymatic activity, recombinant marmoset 17β-HSD 1
Excerpt: Full length cDNAs of several 17β-HSDs type 1 originating from different species were cloned either into the pQE30 vector (human 17β-HSD 1, coding for acc. no. NP_000404) for expression as His-Tag protein or into a modified pGex-2T vector [63] (mouse 17β-HSD 1, acc. no. NP_034605; rat 17β-HSD 1, acc. no. NP_036983; marmoset 17β-HSD 1, acc. no. AAG01115; porcine 17β-HSD 1, acc. no. NP_001121944) for expression as GST-fusion proteins. […]
valueKind: pIC50
pIC50 field: float, defined as -log10 of concentration (mol/L).

Provide only the value of recorded pIC50 for Cc1cnc(NC(=O)CC[C@@H]2CC(=O)[C@@]3(C)CC[C@@H]4c5ccc(O)cc5CC[C@H]4[C@H]23)s1 [Compound 3]
7.02

====

Molecular target: human 17β-HSD 1 (Homo sapiens, UniProt P14061)
Construct: Full length cDNAs of several 17β-HSDs type 1 originating from different species were cloned
Sequence (P14061 1-328): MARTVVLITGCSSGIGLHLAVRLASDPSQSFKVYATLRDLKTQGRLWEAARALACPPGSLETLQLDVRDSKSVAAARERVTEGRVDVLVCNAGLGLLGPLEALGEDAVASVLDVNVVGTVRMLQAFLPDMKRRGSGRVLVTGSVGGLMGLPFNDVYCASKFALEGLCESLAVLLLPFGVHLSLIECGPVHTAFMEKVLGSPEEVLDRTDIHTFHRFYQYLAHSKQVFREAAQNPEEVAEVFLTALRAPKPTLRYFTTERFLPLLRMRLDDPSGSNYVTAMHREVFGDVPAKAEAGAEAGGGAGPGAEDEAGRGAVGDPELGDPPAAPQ
Assay: In vitro enzymatic activity, recombinant human 17β-HSD 1 (estrone reduction)
Details: Human 17β-HSD 1; 0.005 µM to 5 µM inhibitor
Listing of entries alongside the reported IC50.
Give the value, in units of nM, as a plain number.

{"columns": ["structureNotation", "IC50 (nM)"],
 "data": [
  ["Cc1cnc(NC(=O)CC[C@@H]2CC(=O)[C@@]3(C)CC[C@@H]4c5ccc(O)cc5CC[C@H]4[C@H]23)s1", 1.3]
]}

// next item, IC50 requested
Give reported IC50 for C[C@]12CC[C@@H]3c4ccc(O)cc4CC[C@H]3[C@@H]1[C@@H](CCCC(=O)N1CCOCC1)CC2=O (human 17β-HSD 1 (Homo sapiens, UniProt P14061))
87.4

====

Target: mouse 17β-HSD 1 (Mus musculus)
Construct: Full length cDNAs of several 17β-HSDs type 1 originating from different species were cloned; made in house; host or cells: E.coli BL21 DE3 Codon Plus RP
Sequence (P51656 1-344): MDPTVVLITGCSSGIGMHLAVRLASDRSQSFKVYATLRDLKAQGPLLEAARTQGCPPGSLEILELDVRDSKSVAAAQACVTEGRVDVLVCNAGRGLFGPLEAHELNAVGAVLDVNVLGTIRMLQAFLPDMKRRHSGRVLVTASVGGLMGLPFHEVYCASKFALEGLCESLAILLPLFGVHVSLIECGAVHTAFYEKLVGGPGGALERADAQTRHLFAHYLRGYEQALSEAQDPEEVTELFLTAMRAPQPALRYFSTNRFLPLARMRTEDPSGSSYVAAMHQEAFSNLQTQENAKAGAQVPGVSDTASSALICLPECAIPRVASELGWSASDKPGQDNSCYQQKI
Assay: In vitro enzymatic activity, recombinant mouse 17β-HSD 1
Type: biochemical
Settings: 2 µM compound, 15 nM 3H-estrone, read-out: Observed % inhibition
valueKind: inhibition at 2 µM (%)
Express your answer in %, writing the number without its unit.

{"columns": ["compound", "targetOfAssay", "inhibition at 2 µM [%]"],
 "data": [
  ["Cc1cnc(NC(=O)CC[C@@H]2CC(=O)[C@@]3(C)CC[C@@H]4c5ccc(O)cc5CC[C@H]4[C@H]23)s1 [Compound 3]", "mouse 17β-HSD 1 (Mus musculus)", 27],
  ["C[C@]12CC[C@@H]3c4ccc(O)cc4CC[C@H]3[C@@H]1[C@@H](CCCC(=O)N1CCOCC1)CC2=O [Compound 2]", "mouse 17β-HSD 1 (Mus musculus)", -1.5],
  ["COc1ccc(-c2cn(CCC[C@H]3CC(=O)[C@@]4(C)CC[C@@H]5c6ccc(O)cc6CC[C@H]5[C@H]34)nn2)cc1 [Compound 4]", "mouse 17β-HSD 1 (Mus musculus)", 18.5],
  ["C[C@]12CC[C@@H]3c4ccc(O)cc4CC[C@H]3[C@@H]1[C@@H](CNC(=O)c1ccc(F)cc1)CC2=O [Compound 1]", "mouse 17β-HSD 1 (Mus musculus)", 27],
  ["C[C@]12CC[C@@H]3c4ccc(O)cc4CC[C@H]3[C@@H]1C[C@H](CC(=O)NCc1cccnc1)C2=O [Compound 5, reference compound]", "mouse 17β-HSD 1 (Mus musculus)", 3.2]
]}

With mouse 17β-HSD 1 (Mus musculus) as the test system, provide measured inhibition at 2 µM for this compound: C[C@]12CC[C@@H]3c4ccc(O)cc4CC[C@H]3[C@@H]1CCC2=O [Compound 6, estrone, reference compound]
101

Ref: paper PMC2882332
